These measurements were taken from ChEMBL document CHEMBL1201862.

system-name: Type-1 angiotensin II receptor (Homo sapiens)
Sequence (P30556 whole entry): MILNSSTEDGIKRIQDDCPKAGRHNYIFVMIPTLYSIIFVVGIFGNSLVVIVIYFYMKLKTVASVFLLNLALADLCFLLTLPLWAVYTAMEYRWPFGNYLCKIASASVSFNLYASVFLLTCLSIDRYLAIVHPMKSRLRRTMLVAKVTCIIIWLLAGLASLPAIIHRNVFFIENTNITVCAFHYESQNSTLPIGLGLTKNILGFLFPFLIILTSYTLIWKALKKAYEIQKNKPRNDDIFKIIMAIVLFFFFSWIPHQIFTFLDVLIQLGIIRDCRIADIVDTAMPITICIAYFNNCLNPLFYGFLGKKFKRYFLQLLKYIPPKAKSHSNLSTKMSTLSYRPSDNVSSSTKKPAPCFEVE
test: AT1 receptor antagonists, dose response, selectivity assay for APJ receptor antagonist project, cell-based, uHTS hits (AID 463214);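 note: antagonist potency against angiotensin II stimulated AT1 response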
Assay type: functional
Activity calls are given as the source filed them. Cut-off read from the data, not from the text of the source: active = IC50 of 20 µM or less and inactive = more.
Readings of IC50 for the listed compounds
recorded-endpoint: IC50

* COc1ccc(-c2cc3c(nn2)-c2ccccc2C3=O)cc1 | 6.98 µM (active)
* Cc1ccc(N=C2C(=O)Nc3c(C)cccc32)cc1 | > 40 µM (not active)
* O=C(CCCC(=O)OCC(=O)c1ccc(Cl)cc1Cl)Nc1cc(C(F)(F)F)ccc1Cl | > 40 µM (not active)
* O=C(CN1C(=O)C2C3CCC(C3)C2C1=O)OCC(=O)c1cccc([N+](=O)[O-])c1 (stereo not given) | 26.3 µM (not active)
* CN(CCO)c1cc(Sc2nc3ccccc3s2)c2nonc2c1[N+](=O)[O-] | 2.08 µM (active)
